Organism: Homo sapiens
ASSAY TEXT: Selectivity ratio of IC50 for His tagged recombinant BRD4 bromodomain 1 (unknown origin) to IC50 for His tagged recombinant CBP (unknown origin)
MEASURED METRIC: Ratio IC50

(1) CNC(=O)c1c[nH]c2c(C(C)C)nc(N3CCCc4cc(-c5cnn(C)c5)c(C(F)F)cc43)cc12
(2) CC(=O)N1CCc2c(cc(-c3cccc(Cl)c3)c(=O)n2CC2CC2)C1
Ask | Please indicate which has the smaller reported Ratio IC50: 1 , or 2 . Give the label under which the chosen entry appears.
Reply | 2

(a) C[C@@H]1CC(=O)Nc2cccc(N3CCCc4cc(-c5cnn(C)c5)c(C(F)F)cc43)c2N1
(b) COc1cccc2c1N(CCCNC(=O)c1cccc3c1N[C@H](C)C(=O)N3)CCC2
(c) CNC(=O)c1c[nH]c2cnc(N3CCCc4cc(-c5cnn(C)c5)c(C(F)F)cc43)cc12
Ask | Reorder: Ratio IC50, max to min. A ranking is expressed here by listing the labels in the requested order.
Reply | a, c, b

###

ASSAY TEXT: Oral bioavailability in CD-1 mouse at 5 mg/kg by LC-MS/MS analysis
Assay type: ADME, organism-based
APPLIED CONDITIONS: in vivo
MEASURED METRIC: bioavailability (%)
The response must be a number in % with no trailing unit.

Ask | Endpoint output: bioavailability of CNC(=O)c1c[nH]c2c(C(C)C)nc(N3CCCc4cc(-c5cnn(C)c5)c(C(F)F)cc43)cc12 . Value?
Reply | 52

###

TARGET DESC: Bromodomain-containing protein 7 (Homo sapiens)
Sequence (Q9NPI1 whole entry): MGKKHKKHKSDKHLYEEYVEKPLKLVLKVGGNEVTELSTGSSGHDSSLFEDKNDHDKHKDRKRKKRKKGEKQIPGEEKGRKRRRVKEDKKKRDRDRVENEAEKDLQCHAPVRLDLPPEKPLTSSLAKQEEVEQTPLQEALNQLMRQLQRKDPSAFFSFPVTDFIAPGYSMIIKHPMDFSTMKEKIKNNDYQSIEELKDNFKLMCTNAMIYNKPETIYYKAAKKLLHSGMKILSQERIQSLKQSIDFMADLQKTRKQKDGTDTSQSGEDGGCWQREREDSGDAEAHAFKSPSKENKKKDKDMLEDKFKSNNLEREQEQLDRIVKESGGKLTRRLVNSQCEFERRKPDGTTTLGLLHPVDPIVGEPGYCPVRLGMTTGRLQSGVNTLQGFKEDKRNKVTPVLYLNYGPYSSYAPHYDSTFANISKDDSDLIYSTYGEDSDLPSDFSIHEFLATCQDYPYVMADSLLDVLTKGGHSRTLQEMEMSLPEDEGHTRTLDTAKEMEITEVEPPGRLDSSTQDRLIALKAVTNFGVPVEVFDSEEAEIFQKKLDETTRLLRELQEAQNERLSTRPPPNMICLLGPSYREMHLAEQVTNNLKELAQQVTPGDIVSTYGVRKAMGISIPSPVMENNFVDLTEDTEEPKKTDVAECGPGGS
ASSAY TEXT: Binding affinity to human BRD7 (L125 to R254) expressed in mammalian cells by BromoScan assay
pKd: −log10 of the molar value.
MEASURED METRIC: pKd

Ask | Observed pKd on Bromodomain-containing protein 7 (Homo sapiens) for CNC(=O)c1c[nH]c2c(C(C)C)nc(N3CCCc4cc(-c5cnn(C)c5)c(C(F)F)cc43)cc12 , please.
Reply | < 5.00

###

TARGET DESC: Bromodomain-containing protein 4 (Homo sapiens, UniProt O60885)
ASSAY TEXT: Inhibition of His tagged recombinant BRD4 bromodomain 1 (unknown origin) by TR-FRET assay
MEASURED METRIC: IC50 (µM)

(P) CCC(=O)N1CCCc2cc(NS(=O)(=O)c3ccc(F)cc3C)ccc21
(Q) Cn1cc(-c2cc3c(cc2C(F)F)N(c2ccc4sc(=O)n(C)c4c2)CCC3)cn1
(R) Cc1ccc(S(=O)(=O)Nc2ccc3c(c2)CCC(=O)N3C)s1
Ask | // ascending sort on IC50 for the entries above A ranking is expressed here by listing the labels in the requested order.
Reply | R, Q, P

(1) CC(=O)N1CCc2c(cc(-c3cccc(Cl)c3)c(=O)n2CC2CC2)C1
(2) C[C@@H]1CC(=O)Nc2cccc(N3CCCc4cc(-c5cnn(C)c5)c(C(F)F)cc43)c2N1
(3) COc1cccc2c1N(CCCNC(=O)c1cccc3c1N[C@H](C)C(=O)N3)CCC2
Ask | Reorder: IC50, max to min. A ranking is expressed here by listing the labels in the requested order.
Reply | 1, 3, 2
(1: 52 µM, 3: 13 µM, 2: 4.5 µM)

###

TARGET DESC: Bromodomain-containing protein 9 (Homo sapiens, UniProt Q9H8M2)
Sequence (Q9H8M2 whole entry): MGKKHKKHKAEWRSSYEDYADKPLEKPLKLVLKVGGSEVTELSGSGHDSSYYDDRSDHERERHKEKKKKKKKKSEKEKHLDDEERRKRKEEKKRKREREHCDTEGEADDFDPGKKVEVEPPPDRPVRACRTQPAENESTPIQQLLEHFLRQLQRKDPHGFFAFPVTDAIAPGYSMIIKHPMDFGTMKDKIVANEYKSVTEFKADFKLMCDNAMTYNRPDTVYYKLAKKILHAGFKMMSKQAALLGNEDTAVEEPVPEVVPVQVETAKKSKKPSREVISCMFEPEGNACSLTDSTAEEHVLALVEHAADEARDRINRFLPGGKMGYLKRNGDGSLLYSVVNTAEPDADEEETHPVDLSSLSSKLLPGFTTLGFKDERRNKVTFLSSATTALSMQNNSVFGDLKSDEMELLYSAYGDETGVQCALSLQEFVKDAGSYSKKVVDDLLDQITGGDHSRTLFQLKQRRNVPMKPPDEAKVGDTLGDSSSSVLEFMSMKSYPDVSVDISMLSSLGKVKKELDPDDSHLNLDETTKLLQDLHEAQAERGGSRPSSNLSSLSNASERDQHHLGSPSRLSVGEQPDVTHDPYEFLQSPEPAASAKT
ASSAY TEXT: Inhibition of His tagged recombinant BRD9 (unknown origin) by TR-FRET assay
pIC50: −log10 of the molar value.
MEASURED METRIC: pIC50

Ask | Observed pIC50 on Bromodomain-containing protein 9 (Homo sapiens, UniProt Q9H8M2) for C[C@@H]1CC(=O)Nc2cccc(N3CCCc4cc(-c5cnn(C)c5)c(C(F)F)cc43)c2N1 , please.
Reply | < 4.70

###

TARGET DESC: CREB-binding protein/Histone acetyltransferase p300 (Homo sapiens, UniProt Q09472+Q92793)
ASSAY TEXT: Inhibition of P300/CBP in human MV4-11 cells assessed as reduction in MYC expression after 4 hrs by luminescence based assay
Type: cell-based
MEASURED METRIC: EC50 (µM)

CNC(=O)c1c[nH]c2c(C(C)C)nc(N3CCCc4cc(-c5cnn(C)c5)c(C(F)F)cc43)cc12	0.053
CNC(=O)c1c[nH]c2ccc(N3CCCc4cc(-c5cnn(C)c5)c(C(F)F)cc43)cc12	2.2
Cn1cc(-c2cc3c(cc2C(F)F)N(c2cc(N4CCOCC4)c4c(c2)n(C)c(=O)n4C)CCC3)cn1	0.012

(I) Cn1cc(-c2cc3c(cc2C(F)F)N(c2ccc4c(c2)n(C)c(=O)n4C)CCC3)cn1
(II) CNC(=O)c1c[nH]c2cnc(N3CCCc4cc(-c5cnn(C)c5)c(C(F)F)cc43)cc12
Ask | Out of I and II , name the one with the higher EC50. Give the label under which the chosen entry appears.
Reply | I

###

TARGET DESC: Bromodomain-containing protein 4 (Homo sapiens, UniProt O60885)
ASSAY TEXT: Inhibition of His tagged recombinant BRD4 bromodomain 1 (unknown origin) by TR-FRET assay
MEASURED METRIC: IC50 (µM)

(A) CNC(=O)c1c[nH]c2ccc(N3CCCc4cc(-c5cnn(C)c5)c(C(F)F)cc43)cc12
(B) CNC(=O)c1c[nH]c2cnc(N3CCCc4cc(-c5cnn(C)c5)c(C(F)F)cc43)cc12
Ask | Out of A and B , name the one with the higher IC50. Give the label under which the chosen entry appears.
Reply | A
(A: 12 µM, B: 3.9 µM)

###

TARGET DESC: Chromatin remodeling regulator CECR2 (Homo sapiens)
Sequence (Q9BXF3 whole entry): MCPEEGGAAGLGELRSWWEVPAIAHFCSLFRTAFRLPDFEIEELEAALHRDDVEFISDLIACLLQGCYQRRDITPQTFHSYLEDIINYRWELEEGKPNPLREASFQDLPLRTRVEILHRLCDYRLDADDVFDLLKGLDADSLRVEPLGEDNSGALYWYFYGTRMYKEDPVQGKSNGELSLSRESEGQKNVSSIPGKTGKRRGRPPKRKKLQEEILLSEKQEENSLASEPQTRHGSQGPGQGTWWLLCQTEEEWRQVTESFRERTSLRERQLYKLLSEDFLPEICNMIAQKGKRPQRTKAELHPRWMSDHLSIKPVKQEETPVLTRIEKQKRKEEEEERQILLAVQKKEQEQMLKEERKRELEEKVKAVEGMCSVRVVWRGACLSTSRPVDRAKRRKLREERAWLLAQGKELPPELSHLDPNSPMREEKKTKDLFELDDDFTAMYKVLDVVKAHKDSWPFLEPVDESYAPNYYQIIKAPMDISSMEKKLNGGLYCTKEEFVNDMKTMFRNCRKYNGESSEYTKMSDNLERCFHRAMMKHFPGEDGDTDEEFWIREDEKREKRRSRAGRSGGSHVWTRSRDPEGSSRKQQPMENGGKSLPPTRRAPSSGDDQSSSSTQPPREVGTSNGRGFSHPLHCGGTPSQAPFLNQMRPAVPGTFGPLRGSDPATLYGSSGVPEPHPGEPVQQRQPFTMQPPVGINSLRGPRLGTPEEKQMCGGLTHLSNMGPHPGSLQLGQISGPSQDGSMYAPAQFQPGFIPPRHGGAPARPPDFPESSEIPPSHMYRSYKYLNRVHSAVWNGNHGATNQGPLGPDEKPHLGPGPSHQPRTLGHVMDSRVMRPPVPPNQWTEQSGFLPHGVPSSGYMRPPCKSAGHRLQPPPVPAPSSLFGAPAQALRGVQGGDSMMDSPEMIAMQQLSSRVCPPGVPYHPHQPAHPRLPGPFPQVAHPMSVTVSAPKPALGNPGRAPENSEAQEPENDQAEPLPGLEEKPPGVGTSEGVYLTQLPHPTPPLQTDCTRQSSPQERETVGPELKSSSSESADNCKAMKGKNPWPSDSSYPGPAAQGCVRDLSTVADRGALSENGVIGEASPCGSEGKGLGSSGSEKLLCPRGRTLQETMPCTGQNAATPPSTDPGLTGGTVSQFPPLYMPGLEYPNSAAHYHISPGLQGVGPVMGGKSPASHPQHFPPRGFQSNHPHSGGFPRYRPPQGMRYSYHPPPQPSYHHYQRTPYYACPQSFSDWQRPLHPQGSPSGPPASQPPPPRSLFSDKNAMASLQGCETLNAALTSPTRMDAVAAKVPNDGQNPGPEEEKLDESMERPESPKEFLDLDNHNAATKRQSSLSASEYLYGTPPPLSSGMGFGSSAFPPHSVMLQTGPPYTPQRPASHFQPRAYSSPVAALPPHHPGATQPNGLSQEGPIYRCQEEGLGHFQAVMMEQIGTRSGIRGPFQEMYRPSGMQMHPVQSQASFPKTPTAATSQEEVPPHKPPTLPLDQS
ASSAY TEXT: Inhibition of His tagged recombinant CECR2 (unknown origin) by TR-FRET assay
MEASURED METRIC: IC50

Ask | Endpoint output: IC50 of C[C@@H]1CC(=O)Nc2cccc(N3CCCc4cc(-c5cnn(C)c5)c(C(F)F)cc43)c2N1 . Value?
Reply | > 20 µM

###

TARGET DESC: Bromodomain-containing protein 9 (Homo sapiens)
ASSAY TEXT: Binding affinity to human BRD9 (R130 to V259) expressed in bacterial cells by BromoScan assay
MEASURED METRIC: Kd

Ask | Endpoint output: Kd of CNC(=O)c1c[nH]c2c(C(C)C)nc(N3CCCc4cc(-c5cnn(C)c5)c(C(F)F)cc43)cc12 . Value?
Reply | > 10 µM

###

ASSAY TEXT: Half life in CD-1 mouse at 1 mg/kg, iv by LC-MS/MS analysis
Format: ADME, organism-based
APPLIED CONDITIONS: in vivo
MEASURED METRIC: half-life (h)
The response must be a number in h with no trailing unit.

Ask | Endpoint output: half-life of CNC(=O)c1c[nH]c2c(C(C)C)nc(N3CCCc4cc(-c5cnn(C)c5)c(C(F)F)cc43)cc12 . Value?
Reply | 1.3

###

TARGET DESC: Bromodomain-containing protein 4 (Homo sapiens)
ASSAY TEXT: Inhibition of His tagged recombinant BRD4 bromodomain 1 (unknown origin) by TR-FRET assay
MEASURED METRIC: IC50 (µM)

CNC(=O)c1c[nH]c2c(C(C)C)nc(N3CCCc4cc(-c5cnn(C)c5)c(C(F)F)cc43)cc12	2.3
CC(=O)N1CCCc2cc(N3CCCc4cc(-c5cnn(C)c5)c(C(F)F)cc43)ccc21	6.9

(a) Cn1cc(-c2cc3c(cc2C(F)F)N(c2cc(N4CCOCC4)c4c(c2)n(C)c(=O)n4C)CCC3)cn1
(b) CNC(=O)N1CCOc2ccc(N3CCCc4cc(-c5cnn(C)c5)c(C(F)F)cc43)cc2C1
(c) Cn1cc(-c2cc3c(cc2C(F)F)N(c2ccc4c(c2)n(C)c(=O)n4C)CCC3)cn1
Ask | Rank the items in ascending order with respect to IC50. A ranking is expressed here by listing the labels in the requested order.
Reply | a, c, b

Data credit: ChEMBL document CHEMBL4028905
